# SUBJECT OF TEST: RORc ligand binding domain (Homo sapiens, UniProt P51449)
# Sequence (P51449 269-508 limits assumed): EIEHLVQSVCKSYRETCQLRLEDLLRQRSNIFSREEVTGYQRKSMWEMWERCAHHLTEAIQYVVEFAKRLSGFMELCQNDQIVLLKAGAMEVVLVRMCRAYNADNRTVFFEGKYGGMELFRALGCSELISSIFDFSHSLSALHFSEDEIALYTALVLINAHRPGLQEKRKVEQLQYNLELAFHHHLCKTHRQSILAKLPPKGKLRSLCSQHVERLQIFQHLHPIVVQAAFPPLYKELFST
MEASURED ATTRIBUTE: IC50 (nM)

Incoming: Kindly indicate its recorded IC50. Item: CC[C@@H](O[C@@]12CC[C@@H](c3cc(-c4c(F)cccc4F)nnc31)C2(C)C)c1nc[nH]n1
Outgoing: 50.1

Incoming: Kindly indicate its recorded IC50. Item: CC1(C)[C@H]2CC[C@]1([C@@H]1CN(S(C)(=O)=O)CCO1)c1nnc(-c3c(F)cccc3F)cc12
Outgoing: 224

Incoming: Kindly indicate its recorded IC50. Item: CC1(C)[C@H]2CC[C@]1(O[C@H](C(N)=O)C1CC1)c1nnc(-c3c(F)cccc3F)cc12
Outgoing: 132

1: CC1(C)[C@H]2CC[C@]1(Oc1cncnc1)c1nnc(-c3c(F)cccc3F)cc12
2: CC1(C)[C@H]2CC[C@]1([C@H]1CCCN(C(=O)NCCO)C1)c1nnc(-c3c(F)cccc3F)cc12 (stereo in doubt)
3: CC[C@H](O[C@@]12CC[C@@H](c3cc(-c4c(F)cccc4F)nnc31)C2(C)C)C(=O)NCCS(C)(=O)=O
4: CC(=O)N1CCO[C@@H]([C@@]23CC[C@@H](c4cc(-c5c(F)cccc5F)nnc42)C3(C)C)C1
Incoming: Rank entries according to their IC50, from the largest number down. # answer = labels listed in requested order
Outgoing: 1, 4, 3, 2
(1: 185 nM, 4: 119 nM, 3: 42.7 nM, 2: 7.4 nM)

====

Reported IC50 for target or system RORc ligand binding domain (Homo sapiens, UniProt P51449), by entry.
MEASURED ATTRIBUTE: IC50 (nM)

Incoming: Kindly indicate its recorded IC50. Item: CC1(C)[C@H]2CC[C@]1([C@H]1CN(C(=O)c3cnco3)CCO1)c1nnc(-c3c(F)cccc3F)cc12 [Compound 94]
Outgoing: 76.3

Incoming: Kindly indicate its recorded IC50. Item: COC(=O)N1CCO[C@H]([C@@]23CC[C@@H](c4cc(-c5c(F)cccc5F)nnc42)C3(C)C)C1 [Compound 85]
Outgoing: 69.8

Incoming: Kindly indicate its recorded IC50. Item: CC1(C)[C@H]2CC[C@]1(Oc1ccc(=O)[nH]c1)c1nnc(-c3c(F)cccc3F)cc12 [Compound 33]
Outgoing: 120

Incoming: Kindly indicate its recorded IC50. Item: CC1(C)[C@H]2CC[C@]1(C1CCC(=O)NC1)c1nnc(-c3c(F)cccc3F)cc12 (some centres unmarked) [Compound 116]
Outgoing: 74

Incoming: Kindly indicate its recorded IC50. Item: CCOC(=O)c1cn2c([C@@]34CC[C@@H](c5cc(-c6c(F)cccc6F)nnc53)C4(C)C)cccc2n1 [Compound 108]
Outgoing: 96
